# EC50 annotations
# System: Hepatitis C virus
# assay_info: Antiviral activity against Hepatitis C virus genotype 1a in Huh-luc/neo-ET replicon cells after 48 hrs by replicon-based luciferase assay
# Format: functional, organism-based, Hepacivirus hominis
# recorded_conditions: subtype 1a

molecule	EC50
COC(=O)N[C@@H](C)C(=O)N1CC2(C[C@H]1c1ncc(-c3ccc(-c4ccc(-c5cnc([C@@H]6CCCN6C(=O)[C@@H](NC(=O)OC)C(C)C)[nH]5)cc4)cc3)[nH]1)OCCCO2	0.0794 nM
COC(=O)NCC(=O)N1CC2(C[C@H]1c1ncc(-c3ccc(-c4ccc(-c5cnc([C@@H]6CCCN6C(=O)[C@@H](NC(=O)OC)C(C)C)[nH]5)cc4)cc3)[nH]1)SCCS2	0.631 nM
COC(=O)N[C@H](C(=O)N1CCC[C@H]1c1ncc(-c2ccc(-c3ccc(-c4cnc([C@@H]5COC6(CCOCC6)N5C(=O)OCc5ccccc5)[nH]4)cc3)cc2)[nH]1)C(C)C	1.58 nM
COC(=O)N[C@H](C(=O)N1CCC[C@H]1c1ncc(-c2ccc(-c3ccc(-c4cnc([C@@H]5CCCN5C(=O)[C@@H](NC(=O)OC)C(C)C)[nH]4)cc3)cc2)[nH]1)C(C)C	0.0398 nM
COC(=O)N[C@H](C(=O)N1CC2(CNC2)CC1c1ncc(-c2ccc(-c3ccc(-c4cnc([C@@H]5CCCN5C(=O)[C@@H](NC(=O)OC)C(C)C)[nH]4)cc3)cc2)[nH]1)C(C)C (mixture of isomers)	3.16 nM
COC(=O)N[C@H](C(=O)N1CC2(CC1c1ncc(-c3ccc(-c4ccc(-c5cnc([C@@H]6CCCN6C(=O)[C@@H](NC(=O)OC)C(C)C)[nH]5)cc4)cc3)[nH]1)CN(S(C)(=O)=O)C2)C(C)C (mixture of isomers)	1.26 nM
COC(=O)N[C@H](C(=O)N1CC2(CC1c1ncc(-c3ccc(-c4ccc(-c5cnc([C@@H]6CCCN6C(=O)[C@@H](NC(=O)OC)C(C)C)[nH]5)cc4)cc3)[nH]1)CC(F)(F)C2)C(C)C (mixture of isomers)	0.1 nM
CNC(=O)N1CC2(CC(c3ncc(-c4ccc(-c5ccc(-c6cnc([C@@H]7CCCN7C(=O)[C@@H](NC(=O)OC)C(C)C)[nH]6)cc5)cc4)[nH]3)N(C(=O)[C@@H](NC(=O)OC)C(C)C)C2)C1 (mixture of isomers)	6.31 nM
COC(=O)N[C@H](C(=O)N1CC2(CC1c1ncc(-c3ccc(-c4ccc(-c5cnc([C@@H]6CCCN6C(=O)[C@@H](NC(=O)OC)C(C)C)[nH]5)cc4)cc3)[nH]1)CN(C(C)=O)C2)C(C)C (mixture of isomers)	1.26 nM
COC(=O)N[C@H](C(=O)N1CC2(CCN(C(=O)OC(C)(C)C)CC2)CC1c1ncc(-c2ccc(-c3ccc(-c4cnc([C@@H]5CCCN5C(=O)[C@@H](NC(=O)OC)C(C)C)[nH]4)cc3)cc2)[nH]1)C(C)C (mixture of isomers)	10 nM
